Tested on: Yap1 mRNA
test method notes: Antisense inhibition of human Yap1 in A-431 cells by cEt gapmers, single dose (Example 2, RTS4814)
Assay type: cell-based
recorded conditions: Table 22; Yap1 mRNA as percent of untreated control; 3-10-3 cEt gapmers; single dose
Strand notation (5' to 3'): a small letter for the sugar, then the base; units joined by * are phosphorothioate-linked, units joined directly phosphodiester-linked; [ ] holds rarer units or linkages, { } end groups; capitals alone tell only the bases. k = constrained ethyl (cEt); [5mC] = 5-methylcytosine; d = 2'-deoxy (DNA)
outcome measure: YAP1 (% UTC)
Numeric only. Scale: % UTC

Inquiry: I have this substance here, 1074248 (antisense kG*kA*kT*d[5mC]*dG*dA*dT*dG*dT*dG*dA*dT*dT*kT*kA*kA) [Compound 1074248] , and I need its recorded YAP1 (% UTC).
Reply text: 29

Inquiry: I have this substance here, 1075528 (kA*kT*k[5mC]*dG*dA*dA*dG*dG*dG*d[5mC]*dA*dA*dA*k[5mC]*kT*k[5mC]; antisense) [Compound 1075528] , and I need its recorded YAP1 (% UTC).
Reply text: 42

Inquiry: I have this substance here, 1075240 (antisense kT*kA*kA*dA*d[5mC]*dG*dG*dT*dT*dT*dA*dT*dA*kT*kT*k[5mC]) [Compound 1075240] , and I need its recorded YAP1 (% UTC).
Reply text: 16

Inquiry: I have this substance here, 958499 (kA*kT*kT*dA*dG*dA*dG*dT*dA*dT*dG*dT*dG*kG*k[5mC]*kA) [Compound 958499] , and I need its recorded YAP1 (% UTC).
Reply text: 1

Inquiry: I have this substance here, 1076232 (kG*kT*kA*dA*dT*dA*d[5mC]*dA*d[5mC]*d[5mC]*dA*dT*dT*kT*kG*kG; antisense) [Compound 1076232] , and I need its recorded YAP1 (% UTC).
Reply text: 15

Inquiry: I have this substance here, 1076424 (kA*k[5mC]*kT*dT*dA*dA*d[5mC]*d[5mC]*dT*dG*dA*d[5mC]*dA*kG*k[5mC]*kT; antisense) [Compound 1076424] , and I need its recorded YAP1 (% UTC).
Reply text: 76
